- target under test: human A2B receptors (Homo sapiens)
- Construct: expressed in transfected cells; host or cells: HEK293
- test protocol: Functional human A2B receptor activity, recombinant HEK293 cells, cAMP (HTRF)
- Assay type: cell-based
- experimental parameters: read-out: A2B (Category)
pIC50: −log10 of the molar value.
measured endpoint: pIC50

{"compound": "CC1(O)C2CCC1CN(C(=O)c1cc3c(cn1)c(-c1cnc4c(F)cc(F)cn14)nn3CC(F)(F)F)C2 (stereo not shown) [Compound 162]", "target under test": "human A2B receptors (Homo sapiens)", "measured endpoint": "pIC50", "observed measurement": "> 6.00"}
{"compound": "CC(C)N(C(=O)c1cc2c(cn1)c(-c1coc3ccccc13)nn2CC(F)(F)F)C(C)C [Compound 233]", "target under test": "human A2B receptors (Homo sapiens)", "measured endpoint": "pIC50", "observed measurement": "> 6.00"}
{"compound": "O=C(c1cc2c(cn1)c(-c1cnc3c(F)cc(F)cn13)nn2CC(F)(F)F)N1CCOC2CC21 (stereo not shown) [Compound 205]", "target under test": "human A2B receptors (Homo sapiens)", "measured endpoint": "pIC50", "observed measurement": "> 6.00"}
{"compound": "CS(=O)(=O)n1nc(-c2cnc3c(F)cc(F)cn23)c2cnc(C(=O)N3CCCOCC3)cc21 [Compound 10]", "target under test": "human A2B receptors (Homo sapiens)", "measured endpoint": "pIC50", "observed measurement": "> 6.00"}
{"compound": "O=C(c1cc2c(cn1)c(-c1cnc3c(F)cc(F)cn13)nn2CC(F)(F)F)N1CCCCCO1 [Compound 191]", "target under test": "human A2B receptors (Homo sapiens)", "measured endpoint": "pIC50", "observed measurement": "> 6.00"}
{"compound": "O=C(c1cc2c(cn1)c(-c1nnc3ccccn13)nn2CC(F)(F)F)N1CCCCCC1 [Compound 71]", "target under test": "human A2B receptors (Homo sapiens)", "measured endpoint": "pIC50", "observed measurement": "> 6.00"}
{"compound": "CC(C)C1CC(O)CCN1C(=O)c1cc2c(cn1)c(-c1cnc3c(F)cc(F)cn13)nn2CC(F)(F)F (stereo not shown) [Compound 141]", "target under test": "human A2B receptors (Homo sapiens)", "measured endpoint": "pIC50", "observed measurement": "> 6.00"}
{"compound": "CCN(C(=O)c1cc2c(cn1)c(-c1coc3ccccc13)nn2CC(F)(F)F)C1CCCCC1 [Compound 235]", "target under test": "human A2B receptors (Homo sapiens)", "measured endpoint": "pIC50", "observed measurement": "> 6.00"}
{"compound": "O=C(c1cc2c(cn1)c(-c1c[nH]c3ccc(F)cc13)nn2CC(F)(F)F)N1CCCOCC1 [Compound 123]", "target under test": "human A2B receptors (Homo sapiens)", "measured endpoint": "pIC50", "observed measurement": "> 7.00"}
{"compound": "CS(=O)(=O)Cn1nc(-c2coc3ccccc23)c2cnc(C(=O)N3CCCOCC3)cc21 [Compound 16]", "target under test": "human A2B receptors (Homo sapiens)", "measured endpoint": "pIC50", "observed measurement": "> 7.00"}
{"compound": "NC(=O)Cn1nc(-c2coc3ccccc23)c2cnc(C(=O)N3CCCOCC3)cc21 [Compound 105]", "target under test": "human A2B receptors (Homo sapiens)", "measured endpoint": "pIC50", "observed measurement": "> 6.00"}
{"compound": "O=C(c1cc2c(cn1)c(-c1coc3ccc(F)cc13)nn2CC(F)(F)F)N1CCOCC(O)C1 (stereo not shown) [Compound 118]", "target under test": "human A2B receptors (Homo sapiens)", "measured endpoint": "pIC50", "observed measurement": "> 7.00"}
{"compound": "CCCn1nc(-c2cnc3ccc(F)cn23)c2cnc(C(=O)N3CCCCCC3)cc21 [Compound 5]", "target under test": "human A2B receptors (Homo sapiens)", "measured endpoint": "pIC50", "observed measurement": "> 6.00"}
{"compound": "CC1(O)CCN(C(=O)c2cc3c(cn2)c(-c2cnn4ccccc24)nn3CC(F)(F)F)CC1 [Compound 117]", "target under test": "human A2B receptors (Homo sapiens)", "measured endpoint": "pIC50", "observed measurement": "> 6.00"}
{"compound": "O=C(c1cc2c(cn1)c(-c1coc3ccc(F)cc13)nn2CC(F)(F)F)N1CCCOCC1 [Compound 109]", "target under test": "human A2B receptors (Homo sapiens)", "measured endpoint": "pIC50", "observed measurement": "> 7.00"}
{"compound": "COCC1CCCN1C(=O)c1cc2c(cn1)c(-c1coc3ccccc13)nn2CS(C)(=O)=O (stereo not shown) [Compound 34]", "target under test": "human A2B receptors (Homo sapiens)", "measured endpoint": "pIC50", "observed measurement": "> 6.00"}

----------
- target under test: human A2B receptors (Homo sapiens, UniProt P29275)
- Construct: expressed in transfected cells; host or cells: HEK293
- Sequence (P29275 whole entry): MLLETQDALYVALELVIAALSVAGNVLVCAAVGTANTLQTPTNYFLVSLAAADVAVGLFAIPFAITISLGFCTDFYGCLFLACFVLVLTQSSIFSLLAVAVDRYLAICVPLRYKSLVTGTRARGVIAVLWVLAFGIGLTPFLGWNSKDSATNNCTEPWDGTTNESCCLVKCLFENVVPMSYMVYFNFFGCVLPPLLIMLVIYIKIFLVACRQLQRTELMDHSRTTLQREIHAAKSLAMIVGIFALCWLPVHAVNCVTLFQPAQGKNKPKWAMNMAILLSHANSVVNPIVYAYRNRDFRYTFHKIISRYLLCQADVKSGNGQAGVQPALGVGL
- test protocol: Functional human A2B receptor activity, recombinant HEK293 cells, cAMP (HTRF)
- Type: cell-based
- experimental parameters: read-out: A2B (Category)
pIC50: −log10 of the molar value.
measured endpoint: pIC50

{"compound": "CS(=O)(=O)Cn1nc(-c2cnn3ccccc23)c2cnc(C(=O)N3CC4CCC(C4)C3)cc21 [Compound 18]", "target under test": "human A2B receptors (Homo sapiens, UniProt P29275)", "measured endpoint": "pIC50", "observed measurement": "> 6.00"}
{"compound": "CS(=O)(=O)Cn1nc(-c2coc3ccccc23)c2cnc(C(=O)N3CC4CCC(C3)O4)cc21 [Compound 107]", "target under test": "human A2B receptors (Homo sapiens, UniProt P29275)", "measured endpoint": "pIC50", "observed measurement": "> 7.00"}
{"compound": "CC1(O)CCN(C(=O)c2cc3c(cn2)c(-c2cnc4c(F)cc(F)cn24)nn3CC(F)(F)F)CC1 [Compound 133]", "target under test": "human A2B receptors (Homo sapiens, UniProt P29275)", "measured endpoint": "pIC50", "observed measurement": "> 6.00"}
{"compound": "CC(C)(C)OC(=O)NC1COCCN(C(=O)c2cc3c(cn2)c(-c2cnc4c(F)cc(F)cn24)nn3CC(F)(F)F)C1 (stereo not shown) [Compound 204]", "target under test": "human A2B receptors (Homo sapiens, UniProt P29275)", "measured endpoint": "pIC50", "observed measurement": "> 6.00"}

----------
- target under test: human A2B receptors (Homo sapiens, UniProt P29275)
- Construct: expressed in transfected cells; host or cells: HEK293
- test protocol: Functional human A2B receptor activity, recombinant HEK293 cells, cAMP (HTRF)
- Format: cell-based
- experimental parameters: read-out: A2B (Category)

{"molecule": "O=C(c1cc2c(cn1)c(-c1cnc3c(F)cc(F)cn13)nn2CC(F)(F)F)N1C2CCCC1CC2 [Compound 172]", "IC50": "< 100 nM"}
{"molecule": "O=C(c1cc2c(cn1)c(-c1coc3ccccc13)nn2CC(F)(F)F)N1CCCC(O)CC1 (stereo not shown) [Compound 228]", "IC50": "< 100 nM"}
{"molecule": "C[C@@]1(O)C[C@H]2C[C@@H]1CN2C(=O)c1cc2c(cn1)c(-c1coc3ccccc13)nn2CS(C)(=O)=O (relative stereo) [Compound 31]", "IC50": "< 1000 nM"}
{"molecule": "O=C1CN(C(=O)c2cc3c(cn2)c(-c2cnc4c(F)cc(F)cn24)nn3CC(F)(F)F)CCCN1 [Compound 201]", "IC50": "< 1000 nM"}
{"molecule": "O=C(c1cc2c(cn1)c(-c1cnc3c(F)cc(F)cn13)nn2CC(F)(F)F)N1CCCC(O)C1 (stereo not shown) [Compound 151]", "IC50": "< 1000 nM"}
{"molecule": "CS(=O)(=O)Cn1nc(-c2coc3ccc(F)cc23)c2cnc(C(=O)N3CC4CCC(C3)O4)cc21 [Compound 111]", "IC50": "< 100 nM"}
{"molecule": "O=C(c1cc2c(cn1)c(-c1coc3ccccc13)nn2CC(F)(F)F)N1CC2CCC(C1)C2O (stereo not shown) [Compound 218]", "IC50": "< 100 nM"}

----------
- target under test: human A2B receptors (Homo sapiens, UniProt P29275)
- Construct: expressed in transfected cells; host or cells: HEK293
- test protocol: Functional human A2B receptor activity, recombinant HEK293 cells, cAMP (HTRF)
- Format: cell-based
- experimental parameters: read-out: Functional A2B receptor activity HEK293, cAMP IC50

{"molecule": "O=C(c1ccc2c(-c3cnc4c(F)cc(F)cn34)nn(CC(F)(F)F)c2c1)N1CCCCCC1 [analogue to No. 60, reference compound]", "IC50": "< 1000 nM"}
{"molecule": "O=C(c1ccc2c(-c3cnc4ccc(Cl)cn34)nn(CC(F)(F)F)c2c1)N1CCCCCC1 [analogue to No. 48, reference compound]", "IC50": "> 1000 nM"}
{"molecule": "O=C(c1ccc2c(-c3cnc4ccc(F)cn34)nn(CC(F)(F)F)c2c1)N1CCCCCC1 [analogue to No. 44, reference compound]", "IC50": "< 1000 nM"}
